Items are presented alongside their recorded Ki.
study_target: rat histamine H3 receptor (Rattus norvegicus)
Construct: encoding the entire 445-amino-acid rat histamine H3 receptor; expressed in transfected cells
Sequence (Q9QYN8 whole entry): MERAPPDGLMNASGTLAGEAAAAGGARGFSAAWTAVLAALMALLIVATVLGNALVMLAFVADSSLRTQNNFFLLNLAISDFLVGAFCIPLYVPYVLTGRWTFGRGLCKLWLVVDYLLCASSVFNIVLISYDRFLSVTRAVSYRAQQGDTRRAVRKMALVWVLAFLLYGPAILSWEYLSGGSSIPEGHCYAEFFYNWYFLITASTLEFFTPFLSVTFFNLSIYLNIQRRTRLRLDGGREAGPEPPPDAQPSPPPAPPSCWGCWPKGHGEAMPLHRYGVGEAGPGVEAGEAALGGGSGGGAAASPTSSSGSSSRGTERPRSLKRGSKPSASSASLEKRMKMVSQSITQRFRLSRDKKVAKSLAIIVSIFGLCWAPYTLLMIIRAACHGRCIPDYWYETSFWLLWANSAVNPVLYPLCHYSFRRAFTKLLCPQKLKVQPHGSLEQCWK
assay_text: Rat H3 radioligand binding ([3H]-N-alpha-methylhistamine, SPA)
applied_conditions: membranes of CHO-A3 cells expressing rat H3; [3H]-N-alpha-methylhistamine; read-out: Rat H3 Ki
value_kind: Ki

- molecule: "Cc1cc(C(=O)CN2CCN(C(=O)C3CCCCC3)CC2)ccc1OCCCN1CCC[C@H]1C [Example 148]"
  study_target: "rat histamine H3 receptor (Rattus norvegicus)"
  value_kind: "Ki"
  result: "0.1 to 100 nM"
- molecule: "O=C(CN1CCC(F)(F)CC1)c1ccc(OCCCN2CCCCC2)c(Cl)c1 [Example 147]"
  study_target: "rat histamine H3 receptor (Rattus norvegicus)"
  value_kind: "Ki"
  result: "> 1000 nM"
- molecule: "C[C@@H]1CCCN1CCCOc1ccc(C(=O)CN2CCN(c3ncccn3)CC2)cc1 [Example 90]"
  study_target: "rat histamine H3 receptor (Rattus norvegicus)"
  value_kind: "Ki"
  result: "0.1 to 100 nM"
- molecule: "C[C@@H]1CCCN1CCCOc1ccc(C(=O)CN2CCC(F)(F)CC2)cc1Cl [Example 134]"
  study_target: "rat histamine H3 receptor (Rattus norvegicus)"
  value_kind: "Ki"
  result: "101 to 500 nM"
- molecule: "C[C@@H]1CCCN1CCCOc1ccc(C(=O)CN2CCN(C(=O)c3ccco3)CC2)cc1 [Example 81]"
  study_target: "rat histamine H3 receptor (Rattus norvegicus)"
  value_kind: "Ki"
  result: "0.1 to 100 nM"
- molecule: "CC(C)COC(=O)N1CCN(CC(=O)c2ccc(OCCCN3CCC[C@H]3C)cc2)CC1 [Example 131]"
  study_target: "rat histamine H3 receptor (Rattus norvegicus)"
  value_kind: "Ki"
  result: "0.1 to 100 nM"
- molecule: "C[C@@H]1CCCN1CCCOc1ccc(C(=O)CN2CCN(c3ncccn3)CC2)cc1Cl [Example 125]"
  study_target: "rat histamine H3 receptor (Rattus norvegicus)"
  value_kind: "Ki"
  result: "101 to 500 nM"
- molecule: "CC(C)C(=O)N1CCN(CC(=O)c2ccc(OCCCN3CCC[C@H]3C)c(F)c2)CC1 [Example 121]"
  study_target: "rat histamine H3 receptor (Rattus norvegicus)"
  value_kind: "Ki"
  result: "0.1 to 100 nM"
- molecule: "C[C@@H]1CCCN1CCCOc1ccc(C(=O)CN2CCN(C(=O)N3CCOCC3)CC2)cc1 [Example 70]"
  study_target: "rat histamine H3 receptor (Rattus norvegicus)"
  value_kind: "Ki"
  result: "0.1 to 100 nM"
- molecule: "C[C@@H]1CCCN1CCCOc1ccc(C(=O)CN2CCN(C(=O)Oc3ccc(F)cc3)CC2)cc1 [Example 149]"
  study_target: "rat histamine H3 receptor (Rattus norvegicus)"
  value_kind: "Ki"
  result: "0.1 to 100 nM"
- molecule: "Cc1cc(C(=O)CN2CCNC(=O)C2)ccc1OCCCN1CCC[C@H]1C [Example 150]"
  study_target: "rat histamine H3 receptor (Rattus norvegicus)"
  value_kind: "Ki"
  result: "101 to 500 nM"
- molecule: "Cc1cc(OCCCN2CCC[C@H]2C)ccc1C(=O)CN1CCOCC1 [Example 74]"
  study_target: "rat histamine H3 receptor (Rattus norvegicus)"
  value_kind: "Ki"
  result: "101 to 500 nM"
